This collection of values is drawn from ChEMBL document CHEMBL5303573.

# studyTarget: Sialic acid-specific 9-O-acetylesterase (Bacteroides thetaiotaomicron, UniProt Q8A0D0)
# Sequence (Q8A0D0 whole entry): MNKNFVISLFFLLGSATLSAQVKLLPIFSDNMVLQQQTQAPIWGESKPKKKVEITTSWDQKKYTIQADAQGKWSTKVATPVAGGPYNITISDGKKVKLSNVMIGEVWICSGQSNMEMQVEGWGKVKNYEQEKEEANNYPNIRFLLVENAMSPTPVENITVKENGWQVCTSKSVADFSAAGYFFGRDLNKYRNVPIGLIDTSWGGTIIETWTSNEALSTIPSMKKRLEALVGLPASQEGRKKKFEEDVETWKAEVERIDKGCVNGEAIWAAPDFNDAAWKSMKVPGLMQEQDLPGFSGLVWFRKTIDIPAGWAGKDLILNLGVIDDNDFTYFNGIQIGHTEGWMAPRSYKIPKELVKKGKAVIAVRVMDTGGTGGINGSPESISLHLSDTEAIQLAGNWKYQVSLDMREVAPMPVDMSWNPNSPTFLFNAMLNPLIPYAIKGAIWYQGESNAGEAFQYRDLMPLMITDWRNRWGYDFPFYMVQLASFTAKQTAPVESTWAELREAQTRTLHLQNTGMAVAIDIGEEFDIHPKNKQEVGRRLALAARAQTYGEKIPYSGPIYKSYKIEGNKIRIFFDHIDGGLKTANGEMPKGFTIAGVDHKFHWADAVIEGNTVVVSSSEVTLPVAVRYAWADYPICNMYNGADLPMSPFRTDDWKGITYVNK
# assayText: The drug is tested on Bacteroides thetaiotaomicron strain: VPI-5482 for biotransformation. The drug concentrations were measured before and after a 12-h incubation by liquid-chromatography-coupled mass spectrometry (LC–MS)
# Assay type: ADME
# Design: dose 2 uM
# measurementParameters: 2 µM
measurementKind: Bacterial Biotransformation

Record excerpt, results attached:
CCOC(=O)C1=C(C)NC(C)=C(C(=O)OC)C1c1cccc([N+](=O)[O-])c1 (stereo not drawn) [NITRENDIPINE] ... Compound NOT metabolized
CC(=O)OCC(=O)NCCCOc1cccc(CN2CCCCC2)c1 [ROXATIDINE ACETATE] ... Compound NOT metabolized
CC(=O)OCC(=O)[C@@]12N=C(C)O[C@@H]1C[C@H]1[C@@H]3CCC4=CC(=O)C=C[C@]4(C)[C@H]3[C@@H](O)C[C@@]12C [DEFLAZACORT] ... Compound NOT metabolized
N#Cc1ccc2c(c1)N(CCCN1CCC(O)CC1)c1ccccc1S2 [PERICIAZINE] ... Compound NOT metabolized
C#C[C@]1(O)CC[C@H]2[C@@H]3CCC4=CC(=O)CC[C@@H]4[C@H]3CC[C@@]21CC [LEVONORGESTREL] ... Compound NOT metabolized

Ask | Report Bacterial Biotransformation for O=C(O)c1cc(/N=N/c2ccc(S(=O)(=O)Nc3ccccn3)cc2)ccc1O [SULFASALAZINE] please.
Reply | Compound NOT metabolized

Ask | Report Bacterial Biotransformation for Nc1ccc(/N=N/c2ccccc2)c(N)n1 [PHENAZOPYRIDINE] please.
Reply | Compound NOT metabolized

Ask | Report Bacterial Biotransformation for CCS(=O)(=O)CCn1c([N+](=O)[O-])cnc1C [TINIDAZOLE] please.
Reply | Compound NOT metabolized

* * *

# measurementParameters: bacteroides intestinalis, 12 h, 2 µM
# Description: The drug is tested on Bacteroides intestinalis strain: DSM17393 for biotransformation. The drug concentrations were measured before and after a 12-h incubation by liquid-chromatography-coupled mass spectrometry (LC–MS)
measurementKind: Bacterial Biotransformation

Record excerpt, results attached:
Clc1cccc(Cl)c1N=C1NCCN1 ... Compound NOT metabolized
COc1ccc(CN2CCNCC2)c(OC)c1OC.Cl.Cl [TRIMETAZIDINE DIHYDROCHLORIDE] ... Compound metabolized
CC(CN(C)C)CN1c2ccccc2CCc2ccccc21.O=C(O)/C=C\C(=O)O (stereo not given) [TRIMIPRAMINE MALEATE] ... Compound NOT metabolized
COC(=O)C1=C(C)NC(C)=C(C(=O)OC(C)C)C1c1cccc2nonc12 (stereo not given) ... Compound NOT metabolized
CNS(=O)(=O)Cc1ccc2[nH]cc(CCN(C)C)c2c1.O=C(O)CCC(=O)O [SUMATRIPTAN SUCCINATE] ... Compound NOT metabolized
CC[C@@]1(O)C(=O)OCc2c1cc1n(c2=O)Cc2cc3c(CN(C)C)c(O)ccc3nc2-1 ... Compound NOT metabolized

Ask | Report Bacterial Biotransformation for C=CCc1ccccc1OCC(O)CNC(C)C (stereo not given) please.
Reply | Compound NOT metabolized

Ask | Report Bacterial Biotransformation for CCC1(c2ccc(N)cc2)CCC(=O)NC1=O (stereo not given) [AMINOGLUTETHIMIDE] please.
Reply | Compound NOT metabolized

Ask | Report Bacterial Biotransformation for CC(C)NCC(O)COc1ccc(CC(N)=O)cc1 (stereo not given) please.
Reply | Compound NOT metabolized

Ask | Report Bacterial Biotransformation for N#Cc1ccc2[nH]cc(CCCCN3CCN(c4ccc5oc(C(N)=O)cc5c4)CC3)c2c1 please.
Reply | Compound metabolized

Ask | Report Bacterial Biotransformation for Fc1ccc([C@@H]2CCNC[C@H]2COc2ccc3c(c2)OCO3)cc1 please.
Reply | Compound NOT metabolized

Ask | Report Bacterial Biotransformation for COc1ccnc(C[S+]([O-])c2nc3ccc(OC(F)F)cc3[nH]2)c1OC (stereo not given) please.
Reply | Compound metabolized

Ask | Report Bacterial Biotransformation for CN1CCOC(c2ccccc2)c2ccccc2C1 (stereo not given) please.
Reply | Compound NOT metabolized

* * *

# measurementParameters: bacteroides stercoris, 12 h, 2 µM
# Description: The drug is tested on Bacteroides stercoris strain: ATCC43183 for biotransformation. The drug concentrations were measured before and after a 12-h incubation by liquid-chromatography-coupled mass spectrometry (LC–MS)
measurementKind: Bacterial Biotransformation

Record excerpt, results attached:
CN1CCc2c(c3ccccc3n2Cc2ccccc2)C1.CN1CCc2c(c3ccccc3n2Cc2ccccc2)C1.O=S(=O)(O)c1cccc2c(S(=O)(=O)O)cccc12 ... Compound NOT metabolized
C=CC[C@@H]1/C=C(\C)C[C@H](C)C[C@H](OC)[C@H]2O[C@@](O)(C(=O)C(=O)N3CCCC[C@H]3C(=O)O[C@H](/C(C)=C/[C@@H]3CC[C@@H](O)[C@H](OC)C3)[C@H](C)[C@@H](O)CC1=O)[C@H](C)C[C@@H]2OC.O [TACROLIMUS] ... Compound metabolized
N#Cc1ccc(C(c2ccc(C#N)cc2)n2cncn2)cc1 [LETROZOLE] ... Compound NOT metabolized
Cc1nc(-c2ccc(OCC(C)C)c(C#N)c2)sc1C(=O)O [FEBUXOSTAT] ... Compound NOT metabolized

Ask | Report Bacterial Biotransformation for CC(C)(C)NC[C@H](O)COc1ccccc1C1CCCC1.CC(C)(C)NC[C@H](O)COc1ccccc1C1CCCC1.O=S(=O)(O)O [PENBUTOLOL SULFATE] please.
Reply | Compound NOT metabolized

Ask | Report Bacterial Biotransformation for CC(=O)OCC(CCn1cnc2cnc(N)nc21)COC(C)=O [FAMCICLOVIR] please.
Reply | Compound metabolized

Ask | Report Bacterial Biotransformation for CC(C)NCC(O)c1ccc(NS(C)(=O)=O)cc1 (configuration not stated) [SOTALOL] please.
Reply | Compound NOT metabolized

* * *

# measurementParameters: bacteroides thetaiotaomicron, 12 h, 2 µM
measurementKind: Bacterial Biotransformation

Record excerpt, results attached:
CC(=O)O[C@H]1C(=O)[C@@]2(C)[C@H]([C@H](OC(=O)c3ccccc3)[C@]3(O)C[C@H](OC(=O)[C@H](O)[C@@H](NC(=O)c4ccccc4)c4ccccc4)C(C)=C1C3(C)C)[C@]1(OC(C)=O)CO[C@@H]1C[C@@H]2O [PACLITAXEL] ... Compound NOT metabolized
CN(C)C(=O)Oc1cccc([N+](C)(C)C)c1.[Br-] [NEOSTIGMINE BROMIDE] ... Compound metabolized
C[C@@H]1CC[C@H]2[C@@H](C)C(=O)O[C@@H]3O[C@@]4(C)CC[C@@H]1[C@]32OO4 [ARTEMISININ] ... Compound metabolized
COc1ccc(CCN(C)CCCC(C#N)(c2ccc(OC)c(OC)c2)C(C)C)cc1OC (stereo unspecified) ... Compound metabolized
CC[C@H](C)C(=O)O[C@H]1C[C@@H](C)C=C2C=C[C@H](C)[C@H](CC[C@@H]3C[C@@H](O)CC(=O)O3)[C@H]21 [LOVASTATIN] ... Compound NOT metabolized
CC(C)(Oc1ccc(CCNC(=O)c2ccc(Cl)cc2)cc1)C(=O)O [BEZAFIBRATE] ... Compound metabolized
C#C[C@]1(OC(C)=O)CC[C@H]2[C@@H]3CCC4=CC(=O)CC[C@@H]4[C@H]3CC[C@@]21C [NORETHINDRONE ACETATE] ... Compound metabolized
CC(O)(CS(=O)(=O)c1ccc(F)cc1)C(=O)Nc1ccc(C#N)c(C(F)(F)F)c1 (stereo unspecified) [BICALUTAMIDE] ... Compound NOT metabolized
CCCCc1nc(Cl)c(CO)n1Cc1ccc(-c2ccccc2-c2nn[nH]n2)cc1 [LOSARTAN] ... Compound NOT metabolized
O=C(O)c1cc(/N=N/c2ccc(S(=O)(=O)Nc3ccccn3)cc2)ccc1O [SULFASALAZINE] ... Compound metabolized

Please examine the following record next.
Ask | Report Bacterial Biotransformation for CCCCC1=NC2(CCCC2)C(=O)N1Cc1ccc(-c2ccccc2-c2nnn[nH]2)cc1 [IRBESARTAN] please.
Reply | Compound NOT metabolized
